# credit: the supplement of paper PMC10567573

B1: TEKT4 (parent)
chain: LREKLLEAEQSLRNLEDIHMSLEK

Variants of: B1
Test Protocol: protein stability index of a GFP-peptide fusion (GPS, HEK-293T) (PSI 1-6); higher = more stable;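 note: lentivirally expressed fusions sorted by FACS into six bins by GFP to DsRed ratio, PSI derived from sequencing read proportions per bin multiplied by bin number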
Run Parameters: c terminus: a fixed tail appended
Kindly return Criterion met if reported protein stability index is no lower than 2; return Criterion not met if it is lower.

Mutation Label: M20A
Answer Label: Criterion met
//
Mutation Label: M20K
Answer Label: Criterion met
//
Mutation Label: E3K
Answer Label: Criterion met
//
Mutation Label: E16G
Answer Label: Criterion met
//
Mutation Label: N14H
Answer Label: Criterion not met
//
Mutation Label: N14L
Answer Label: Criterion not met
//
Mutation Label: H19P
Answer Label: Criterion met
//
Mutation Label: K4E
Answer Label: Criterion met
//
Mutation Label: L1T
Answer Label: Criterion met
//
Mutation Label: K4Y
Answer Label: Criterion met
//
Mutation Label: L15I
Answer Label: Criterion met
//
Mutation Label: L5P
Answer Label: Criterion met
//
Mutation Label: N14W
Answer Label: Criterion not met
//
Mutation Label: E7P
Answer Label: Criterion met
//
Mutation Label: S21V
Answer Label: Criterion met
//
Mutation Label: L12V
Answer Label: Criterion met
//
Mutation Label: M20G
Answer Label: Criterion met
//
Mutation Label: L22M
Answer Label: Criterion met
//
Mutation Label: M20R
Answer Label: Criterion met
//
Mutation Label: M20E
Answer Label: Criterion met
//
Mutation Label: E23I
Answer Label: Criterion not met
//
Mutation Label: R2N
Answer Label: Criterion not met
//
Mutation Label: H19V
Answer Label: Criterion met
//
Mutation Label: A8Y
Answer Label: Criterion met
//
Mutation Label: R2C
Answer Label: Criterion not met
//
Mutation Label: R13D
Answer Label: Criterion met
//
Mutation Label: E7D
Answer Label: Criterion met
//
Mutation Label: N14V
Answer Label: Criterion met
//
Mutation Label: H19I
Answer Label: Criterion not met
//
Mutation Label: E7S
Answer Label: Criterion met
//
Mutation Label: L1S
Answer Label: Criterion met
//
Mutation Label: L22R
Answer Label: Criterion met
//
Mutation Label: L12R
Answer Label: Criterion met
//
Mutation Label: Q10D
Answer Label: Criterion not met
//
Mutation Label: L6E
Answer Label: Criterion met
//
Mutation Label: L15E
Answer Label: Criterion met
//
Mutation Label: Q10C
Answer Label: Criterion met
//
Mutation Label: A8N
Answer Label: Criterion met
//
Mutation Label: E9N
Answer Label: Criterion met
//
Mutation Label: D17T
Answer Label: Criterion met
//
Mutation Label: E7K
Answer Label: Criterion met
//
Mutation Label: L6G
Answer Label: Criterion met
//
Mutation Label: E3S
Answer Label: Criterion met
//
Mutation Label: E9D
Answer Label: Criterion met
//
Mutation Label: L22C
Answer Label: Criterion met
//
Mutation Label: K24G
Answer Label: Criterion met
//
Mutation Label: A8V
Answer Label: Criterion met
//
Mutation Label: L5H
Answer Label: Criterion met
//
Mutation Label: S11V
Answer Label: Criterion not met
//
Mutation Label: L5S
Answer Label: Criterion met
//
Mutation Label: Q10S
Answer Label: Criterion met
//
Mutation Label: K4F
Answer Label: Criterion not met
//
Mutation Label: R2K
Answer Label: Criterion met
//
Mutation Label: R13G
Answer Label: Criterion met
//
Mutation Label: E3T
Answer Label: Criterion not met
//
Mutation Label: R13K
Answer Label: Criterion met
//
Mutation Label: N14S
Answer Label: Criterion met
//
Mutation Label: E7A
Answer Label: Criterion met
//
Mutation Label: Q10Y
Answer Label: Criterion not met
//
Mutation Label: R2M
Answer Label: Criterion not met
//
Mutation Label: E16V
Answer Label: Criterion met
//
Mutation Label: E23F
Answer Label: Criterion met
//
Mutation Label: Q10N
Answer Label: Criterion met
//
Mutation Label: R13V
Answer Label: Criterion met
//
Mutation Label: S11T
Answer Label: Criterion met
//
Mutation Label: L1D
Answer Label: Criterion met
//
Mutation Label: R2P
Answer Label: Criterion met
//
Mutation Label: E3A
Answer Label: Criterion met
//
Mutation Label: S21K
Answer Label: Criterion met
//
Mutation Label: D17C
Answer Label: Criterion met
//
Mutation Label: K4A
Answer Label: Criterion met
//
Mutation Label: L1F
Answer Label: Criterion not met
//
Mutation Label: S11M
Answer Label: Criterion not met
//
Mutation Label: K4G
Answer Label: Criterion met
//
Mutation Label: K4H
Answer Label: Criterion met
//
Mutation Label: E7G
Answer Label: Criterion met
//
Mutation Label: H19Q
Answer Label: Criterion met
//
Mutation Label: K24Y
Answer Label: Criterion not met
//
Mutation Label: E9W
Answer Label: Criterion met
//
Mutation Label: L12N
Answer Label: Criterion met
//
Mutation Label: E16T
Answer Label: Criterion met
//
Mutation Label: E9C
Answer Label: Criterion not met
//
Mutation Label: L12W
Answer Label: Criterion not met
//
Mutation Label: K4I
Answer Label: Criterion met
//
Mutation Label: L12K
Answer Label: Criterion met
//
Mutation Label: R13I
Answer Label: Criterion met
//
Mutation Label: D17H
Answer Label: Criterion met
//
Mutation Label: I18G
Answer Label: Criterion met
//
Mutation Label: M20T
Answer Label: Criterion met
//
Mutation Label: E7H
Answer Label: Criterion met
//
Mutation Label: K4P
Answer Label: Criterion met
